Source: patent US6608027B1

Target: His-NS3-NS4AFL (full-length NS3-NS4A protein complex) (Hepatitis C virus genotype 1b, UniProt P26663)
Construct: made in house; host or cells: Sf21 insect cells, recombinant baculovirus (Bac-to-Bac, pFastBac HTa)
Sequence (P26663 1658-1711): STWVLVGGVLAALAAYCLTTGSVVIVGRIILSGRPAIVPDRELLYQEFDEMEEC
Sequence (P26663 1027-1657): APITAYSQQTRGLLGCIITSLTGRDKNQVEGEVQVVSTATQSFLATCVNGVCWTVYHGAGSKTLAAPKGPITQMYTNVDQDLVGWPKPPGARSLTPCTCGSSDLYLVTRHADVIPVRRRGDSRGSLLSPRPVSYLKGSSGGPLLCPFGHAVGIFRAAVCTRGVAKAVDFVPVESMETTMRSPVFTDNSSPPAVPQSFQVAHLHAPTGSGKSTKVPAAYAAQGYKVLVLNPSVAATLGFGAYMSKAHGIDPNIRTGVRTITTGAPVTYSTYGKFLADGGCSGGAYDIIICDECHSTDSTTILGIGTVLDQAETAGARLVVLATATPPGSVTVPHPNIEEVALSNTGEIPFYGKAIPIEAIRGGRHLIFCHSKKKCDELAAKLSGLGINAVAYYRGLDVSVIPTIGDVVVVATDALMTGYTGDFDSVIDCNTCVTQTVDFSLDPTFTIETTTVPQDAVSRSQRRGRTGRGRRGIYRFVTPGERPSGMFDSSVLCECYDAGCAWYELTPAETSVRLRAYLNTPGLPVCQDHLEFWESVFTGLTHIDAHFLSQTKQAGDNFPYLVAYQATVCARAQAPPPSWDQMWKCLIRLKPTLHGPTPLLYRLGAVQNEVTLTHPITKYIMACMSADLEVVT
Assay: Full-length NS3-NS4A heterodimer protein fluorogenic assay
Type: biochemical, HCV genotype 1b
pIC50: −log10 of the molar value.
I'd be grateful if you could share measured pIC50 for these entries.

Before answering, review these 2 worked examples.
COc1ccc2c(O[C@@H]3C[C@H]4C(=O)N[C@]5(C(=O)O)C[C@H]5/C=C\CCC(O)CC[C@H](NC(=O)OC(C)(C)C)C(=O)N4C3)cc(-c3ccccc3)nc2c1 (mixture of isomers) = > 7.00
COc1ccc2c(O[C@@H]3C[C@H]4C(=O)N[C@]5(C(=O)O)C[C@H]5/C=C\CCCCC[C@H](NC(=O)OC(C)(C)C)C(=O)N4C3)ccnc2c1 = > 7.00

Please report pIC50 for the following compound: COc1ccc2c(O[C@@H]3C[C@H]4C(=O)N[C@]5(C(=O)O)C[C@@H]5/C=C\CCCCC[C@H](NC(=O)OC(C)(C)C)C(=O)N4C3)cc(-c3nccs3)nc2c1
> 7.00

* * *

Molecular target: NS3 protease (Hepatitis C virus genotype 1b, UniProt P26663)
Test: NS3 protease cell-based assay (SEAP reporter, Huh-7 cells)
Conditions: SEAP activity, 24-hour incubation, read-out: cell. act. (EC50 code)
pEC50: −log10 of the molar value.
I'd be grateful if you could share measured pEC50 for these entries.

Before answering, review these 2 worked examples.
COc1ccc2c(O[C@@H]3C[C@H]4C(=O)N[C@]5(C(=O)O)CC5/C=C\CCCCC[C@H](NC(=O)OC(C)(C)C)C(=O)N4C3)cc(-c3nc(C)no3)nc2c1 (stereo partly drawn) = ≥ 6.00
COc1ccc2c(O[C@@H]3C[C@H]4C(=O)N[C@]5(C(=O)O)C[C@H]5/C=C\CCCCC[C@H](NC(=O)OC(C)(C)C)C(=O)N4C3)cc(-n3cccc3)nc2c1 = ≥ 6.00

// moving on: another record for pEC50
Please report pEC50 for the following compound: COc1ccc2c(O[C@@H]3C[C@H]4C(=O)N[C@]5(C(=O)O)CC5/C=C\CCCCC[C@H](NC(=O)OC(C)(C)C)C(=O)N4C3)cc(-n3ccnc3)nc2c1 (stereo partly drawn)
≥ 6.00

* * *

Biological target: UniProtKB P26663
Experiment: Recombinant HCV NS3 protease radiometric assay
Format: biochemical
Conditions: asterisk (*) = radiometric assay of Example 49; read-out: enzyme activity (IC50 grade), asterisk
pIC50: −log10 of the molar value.
Assay metric: pIC50

Before answering, review these 2 worked examples.
COc1ccc2c(O[C@@H]3C[C@H]4C(=O)N[C@]5(C(=O)O)C[C@@H]5CCCCC[C@H](NC(=O)OC(C)(C)C)C(=O)N4C3)cc(-c3ccccc3)nc2c1 [Compound 306] = < 6.00
COc1ccc2c(O[C@@H]3C[C@H]4C(=O)N[C@]5(C(=O)O)C[C@H]5CC/C=C\CS[C@@H](C)[C@H](NC(=O)OC(C)(C)C)C(=O)N4C3)cc(-c3ccccc3)nc2c1 [Compound 411] = < 6.00

// moving on: another record for pIC50
Recall the reported pIC50 of COc1ccc2c(O[C@@H]3C[C@H]4C(=O)N[C@]5(C(=O)O)C[C@H]5CCN(C)CCCC[C@H](NC(=O)OC(C)(C)C)C(=O)N4C3)cc(-c3ccccc3)nc2c1 [Cpd 504] on UniProtKB P26663 and write it down.
< 6.00

* * *

Biological target: NS3 protease (Hepatitis C virus genotype 1b, UniProt P26663)
Assay: NS3 protease cell-based assay (SEAP reporter, Huh-7 cells)
Settings: SEAP activity, 24-hour incubation, read-out: cell. act. (EC50 code)
pEC50: −log10 of the molar value.
Assay metric: pEC50

Before answering, review these 3 worked examples.
COc1ccc2c(O[C@@H]3C[C@H]4C(=O)N[C@]5(C(=O)O)CC5CCCCCCC[C@H](NC(=O)OC5CCCC5)C(=O)N4C3)cc(-c3csc(NC(C)=O)n3)nc2c1 (some centres unmarked) = ≥ 6.00
COc1ccc2c(O[C@@H]3C[C@H]4C(=O)N[C@]5(C(=O)O)CC5/C=C\CCCCC[C@H](NC(=O)OC(C)(C)C)C(=O)N4C3)cc(-c3nc(C(C)C)cs3)nc2c1 (some centres unmarked) = ≥ 6.00
COc1ccc2c(O[C@@H]3C[C@H]4C(=O)N[C@]5(C(=O)O)CC5/C=C\CCCCC[C@H](NC(=O)OC5CCCC5)C(=O)N4C3)cc(-c3csc(NC(=O)OCC(C)C)n3)nc2c1 (some centres unmarked) = ≥ 6.00

Hi there! I need pEC50 for each item below, if you can.
1. COc1ccc2c(O[C@@H]3C[C@H]4C(=O)N[C@]5(C(=O)O)CC5/C=C\CCCCC[C@H](NC(=O)OC5CCCC5)C(=O)N4C3)cc(-c3csc(NC4CCCCC4)n3)nc2c1 (some centres unmarked)
2. COc1ccc2c(O[C@@H]3C[C@H]4C(=O)N[C@]5(C(=O)O)CC5/C=C\CCCCC[C@H](NC(=O)OC(C)(C)C)C(=O)N4C3)cc(-n3cccn3)nc2c1 (some centres unmarked)
3. COc1ccc2c(O[C@@H]3C[C@H]4C(=O)N[C@]5(C(=O)O)CC5/C=C\CCCCC[C@H](NC(=O)OC(C)(C)C)C(=O)N4C3)cc(-n3cnc(C)c3)nc2c1 (some centres unmarked)

1. ≥ 6.00
2. ≥ 6.00
3. ≥ 6.00

Hi there! I need pEC50 for each item below, if you can.
1. COc1ccc2c(O[C@@H]3C[C@H]4C(=O)N[C@]5(C(=O)O)CC5CCCCCCC[C@H](NC(=O)OC5CCCC5)C(=O)N4C3)cc(-c3csc(NC(C)C)n3)nc2c1 (some centres unmarked)
2. COc1ccc2c(O[C@@H]3C[C@H]4C(=O)N[C@]5(C(=O)O)CC5/C=C\CCCCC[C@H](NC(=O)OC(C)(C)C)C(=O)N4C3)cc(-c3nnc(C)o3)nc2c1 (some centres unmarked)

≥ 6.00
< 6.00

Hi there! I need pEC50 for each item below, if you can.
1. CCNc1nc(-c2cc(O[C@@H]3C[C@H]4C(=O)N[C@]5(C(=O)O)C[C@H]5/C=C\CCCCC[C@H](NC(=O)OC(C)(C)C)C(=O)N4C3)c3ccc(OC)cc3n2)cs1
2. COc1ccc2c(O[C@@H]3C[C@H]4C(=O)N[C@]5(C(=O)O)CC5/C=C\CCCCC[C@H](NC(=O)OC5CCCC5)C(=O)N4C3)cc(-c3csc(NC4CC4)n3)nc2c1 (some centres unmarked)
3. CCNc1nc(-c2cc(O[C@@H]3C[C@H]4C(=O)N[C@]5(C(=O)O)CC5CCCCCCC[C@H](NC(=O)OC(C)(C)C)C(=O)N4C3)c3ccc(OC)cc3n2)cs1 (some centres unmarked)
4. COC(=O)Nc1nc(-c2cc(O[C@@H]3C[C@H]4C(=O)N[C@]5(C(=O)O)CC5/C=C\CCCCC[C@H](NC(=O)OC5CCCC5)C(=O)N4C3)c3ccc(OC)cc3n2)cs1 (some centres unmarked)

≥ 6.00
≥ 6.00
≥ 6.00
≥ 6.00

* * *

Biological target: UniProt:P26663
Assay: NS3 protease cell-based assay (SEAP reporter, Huh-7 cells)
Details: SEAP activity, 24-hour incubation, read-out: cell. act. (EC50 code)
I'd be grateful if you could share measured EC50 for these entries.

Before answering, review these 4 worked examples.
COc1ccc(-c2cc(O[C@@H]3C[C@H]4C(=O)N[C@]5(C(=O)O)C[C@H]5/C=C\CCCCC[C@H](NC(=O)OC(C)(C)C)C(=O)N4C3)c3ccc(OC)cc3n2)nc1 = ≤ 1 µM
COc1ccc2c(O[C@@H]3C[C@H]4C(=O)N[C@]5(C(=O)O)CC5/C=C\CCCCC[C@H](NC(=O)OC(C)(C)C)C(=O)N4C3)cc(-c3nccn3C)nc2c1 (some centres unmarked) = ≤ 1 µM
CNc1nc(-c2cc(O[C@@H]3C[C@H]4C(=O)N[C@]5(C(=O)O)CC5/C=C\CCCCC[C@H](NC(=O)OC5CCCC5)C(=O)N4C3)c3ccc(OC)cc3n2)cs1 (some centres unmarked) = ≤ 1 µM
COc1ccc2c(O[C@@H]3C[C@H]4C(=O)N[C@]5(C(=O)O)C[C@H]5/C=C\CCCCC[C@H](NC(=O)OC(C)(C)C)C(=O)N4C3)cc(C3CCC=CO3)nc2c1 (some centres unmarked) = > 1 µM

// moving on: another record for EC50
Please report EC50 for the following compound: COc1ccc2c(O[C@@H]3C[C@H]4C(=O)N[C@]5(C(=O)O)CC5/C=C\CCCCC[C@H](NC(=O)OC5CCCC5)C(=O)N4C3)cc(-c3csc(NC4CCCC4)n3)nc2c1 (some centres unmarked)
≤ 1 µM
